Assay: in vitro
Type: in vitro ADME, human
Details: human liver microsomes, no NADPH, 1 h, compound 0.5 μM
MEASUREMENT TYPE: Human Liver Microsomal Stability no NADPH, % remain 1 h (%)
Respond numerically; units are % and should not be typed.

Could you tell me which Human Liver Microsomal Stability no NADPH, % remain 1 h is on file for `CC(=O)[C@H]1CC[C@H]2[C@@H]3CC[C@H]4C[C@](C)(OC(=O)CNC(=O)CN5CCOCC5)CC[C@]4(C)[C@H]3CC[C@]12C` ? 98.6

Could you tell me which Human Liver Microsomal Stability no NADPH, % remain 1 h is on file for `CC(=O)[C@H]1CC[C@H]2[C@@H]3CC[C@H]4C[C@](C)(OC(=O)CNCC(=O)O)CC[C@]4(C)[C@H]3CC[C@]12C` ? 99

Could you tell me which Human Liver Microsomal Stability no NADPH, % remain 1 h is on file for `CC(=O)[C@H]1CC[C@H]2[C@@H]3CC[C@H]4C[C@](C)(OC(=O)COC(=O)C(C)(C)OC(=O)CN(CCO)CCO)CC[C@]4(C)[C@H]3CC[C@]12C` ? 6

Could you tell me which Human Liver Microsomal Stability no NADPH, % remain 1 h is on file for `CC(=O)[C@H]1CC[C@H]2[C@@H]3CC[C@H]4C[C@](C)(OC(=O)COC(=O)C(C)(C)OC(=O)CN(CCCO)CCCO)CC[C@]4(C)[C@H]3CC[C@]12C` ? 98

* * *

Assay: Pharmacokinetic study with Compound 111 (IV 5 mg/kg, PO 25 mg/kg)
Type: in vivo
Conditions: dog, plasma; analyte Compound 111; oral 25 mg/kg Compound 111; fasted male beagle dogs; mean; read-out: Compound 111 PK t1/2 (converted)
MEASUREMENT TYPE: half-life (h)
Respond numerically; units are h and should not be typed.

Could you tell me which half-life is on file for `CC(=O)[C@H]1CC[C@H]2[C@@H]3CC[C@H]4C[C@](C)(OC(=O)CN)CC[C@]4(C)[C@H]3CC[C@]12C` ? 7.15

* * *

Test: Pharmacokinetic study with Compound 111 (IV 5 mg/kg, PO 25 mg/kg)
Assay type: in vivo
Conditions: dog, plasma; analyte Compound 111; IV 5 mg/kg Compound 111; fasted male beagle dogs; mean; read-out: Compound 111 PK CL
MEASUREMENT TYPE: clearance (mL/min/kg)
Respond numerically; units are mL/min/kg and should not be typed.

Could you tell me which clearance is on file for `CC(=O)[C@H]1CC[C@H]2[C@@H]3CC[C@H]4C[C@](C)(OC(=O)CN)CC[C@]4(C)[C@H]3CC[C@]12C` ? 31.7

* * *

Experiment: Pharmacokinetic study with Compound 218 (IV 5 mg/kg, PO 25 mg/kg)
Type: in vivo
Details: dog, plasma; analyte Compound 218; IV 5 mg/kg Compound 218; fasted male beagle dogs; mean; read-out: Compound 218 PK AUCinf
Method: […]; n=3) and oral (PO) administration (25 mg/kg; n=3) in fasted male beagle dogs.
MEASUREMENT TYPE: AUC(0-inf)
Answer format reminder: number followed by unit.

Could you tell me which AUC(0-inf) is on file for `CC(=O)[C@H]1CC[C@H]2[C@@H]3CC[C@H]4C[C@](C)(OC(=O)COC(=O)C(C)(C)N)CC[C@]4(C)[C@H]3CC[C@]12C` ? 2200 ng·h/mL

* * *

Measured SGF (% remain, 60 min) values are reported for all entries that follow.
Assay: Stability in simulated gastric fluid (SGF)
Assay type: in vitro ADME
Conditions: simulated gi fluid, 1 h, pH 1.2
Respond numerically; units are % and should not be typed.

Consider the worked cases shown below.
- CC(=O)[C@H]1CC[C@H]2[C@@H]3CC[C@H]4C[C@](C)(OC(=O)COC(=O)C(C)(C)O)CC[C@]4(C)[C@H]3CC[C@]12C: 88
- CC(=O)[C@H]1CC[C@H]2[C@@H]3CC[C@H]4C[C@](C)(OC(=O)CN5CCOCC5)CC[C@]4(C)[C@H]3CC[C@]12C: 90.5
- CC(=O)OCCN(C)CC(=O)OC(C)(C)C(=O)OCC(=O)O[C@]1(C)CC[C@@]2(C)[C@@H](CC[C@@H]3[C@@H]2CC[C@]2(C)[C@@H](C(C)=O)CC[C@@H]32)C1: 99.1

Consider the record given below.
Could you tell me which SGF (% remain, 60 min) is on file for `COC(=O)[C@@H](C)NCC(=O)O[C@]1(C)CC[C@@]2(C)[C@@H](CC[C@@H]3[C@@H]2CC[C@]2(C)[C@@H](C(C)=O)CC[C@@H]32)C1` ? 2.80

* * *

Experiment: in vitro
Assay type: in vitro ADME, human
Conditions: human liver microsomes 0.5 mg/mL, with NADPH, compound 0.5 μM, 37° C.; read-out: Human Liver Microsomal Stability t1/2
Measured half-life values are reported for all entries that follow.
Respond numerically; units are min and should not be typed.

Consider the worked cases shown below.
* CC(=O)[C@H]1CC[C@H]2[C@@H]3CC[C@H]4C[C@](C)(OC(=O)CNC(=O)CN5CCOCC5)CC[C@]4(C)[C@H]3CC[C@]12C | 46.7
* CC(=O)[C@H]1CC[C@H]2[C@@H]3CC[C@H]4C[C@](C)(OC(=O)CNC(=O)CNC(=O)[C@@H](N)C(C)C)CC[C@]4(C)[C@H]3CC[C@]12C | 345
* CC(=O)[C@H]1CC[C@H]2[C@@H]3CC[C@H]4C[C@](C)(OC(=O)CC(C)(C)C(=O)O)CC[C@]4(C)[C@H]3CC[C@]12C | 445
* CC(=O)[C@H]1CC[C@H]2[C@@H]3CC[C@H]4C[C@](C)(OC(=O)CSC(C)(C)C(=O)O)CC[C@]4(C)[C@H]3CC[C@]12C | 171
* CC(=O)[C@H]1CC[C@H]2[C@@H]3CC[C@H]4C[C@](C)(OC(=O)COC(=O)C(C)(C)N5CCOCC5)CC[C@]4(C)[C@H]3CC[C@]12C | 27.3

Consider the record given below.
Could you tell me which half-life is on file for `CC(=O)OCCN(CCOC(C)=O)CC(=O)OC(C)(C)C(=O)OCC(=O)O[C@]1(C)CC[C@@]2(C)[C@@H](CC[C@@H]3[C@@H]2CC[C@]2(C)[C@@H](C(C)=O)CC[C@@H]32)C1` ? 6.1

* * *

Assay: Rat liver microsomal stability
Assay type: in vitro ADME
Settings: rat, microsomes
MEASUREMENT TYPE: microsomal CLint (µL/min/mg)
Respond numerically; units are µL/min/mg and should not be typed.

• CC(=O)[C@H]1CC[C@H]2[C@@H]3CC[C@H]4C[C@](C)(OC(=O)CN5CCOCC5)CC[C@]4(C)[C@H]3CC[C@]12C [Compound 101] = 204

Consider the record given below.
Could you tell me which microsomal CLint is on file for CC(=O)[C@H]1CC[C@H]2[C@@H]3CC[C@H]4C[C@](C)(OC(=O)COC(=O)C(C)(C)O)CC[C@]4(C)[C@H]3CC[C@]12C [Compound 224] ? 142

* * *

Assay: Pharmacokinetic study with Compound 111 (IV 5 mg/kg, PO 25 mg/kg)
Type: in vivo
Settings: dog, plasma; analyte Compound 111; IV 5 mg/kg Compound 111; fasted male beagle dogs; mean; read-out: Compound 111 PK MRTInf
MEASUREMENT TYPE: MRT inf (h)
Respond numerically; units are h and should not be typed.

Could you tell me which MRT inf is on file for CC(=O)[C@H]1CC[C@H]2[C@@H]3CC[C@H]4C[C@](C)(OC(=O)CN)CC[C@]4(C)[C@H]3CC[C@]12C [Compound 111] ? 3.68

* * *

Assay: Pharmacokinetic study with Compound 111 (IV 5 mg/kg, PO 25 mg/kg)
Type: in vivo
Settings: dog, plasma; analyte Compound 111; oral 25 mg/kg Compound 111; fasted male beagle dogs; mean; read-out: Compound 111 PK AUClast
MEASUREMENT TYPE: AUC(0-t) (ng·h/mL)
Respond numerically; units are ng·h/mL and should not be typed.

Could you tell me which AUC(0-t) is on file for CC(=O)[C@H]1CC[C@H]2[C@@H]3CC[C@H]4C[C@](C)(OC(=O)CN)CC[C@]4(C)[C@H]3CC[C@]12C [Compound 111] ? 1570

* * *

Measured half-life values are reported for all entries that follow.
Assay: Dog liver microsomal stability
Format: in vitro ADME
Conditions: dog, microsomes

* CC(=O)[C@H]1CC[C@H]2[C@@H]3CC[C@H]4C[C@](C)(OC(=O)COC(=O)C(C)(C)O)CC[C@]4(C)[C@H]3CC[C@]12C [Compound 224] | 7.1 min

Consider the record given below.
Could you tell me which half-life is on file for CC(=O)OCCN(C)CC(=O)OC(C)(C)C(=O)OCC(=O)O[C@]1(C)CC[C@@]2(C)[C@@H](CC[C@@H]3[C@@H]2CC[C@]2(C)[C@@H](C(C)=O)CC[C@@H]32)C1 [Compound 242] ? 2.07 min
